Quick record of MIC values for Escherichia coli.
Express it in µM; write the number only.

See these solved cases before continuing.
molecular-string	recorded-measurement
CC[C@H](C)[C@H](NC(=O)[C@H](CCCCN)NC(=O)[C@H](CCCCN)NC(=O)[C@H](C)NC(=O)[C@@H](NC(=O)[C@H](C)NC(=O)[C@H](CC(C)C)NC(=O)[C@H](CC(C)C)NC(=O)[C@H](C)NC(=O)[C@H](CCCCN)NC(=O)[C@H](CC(C)C)NC(=O)[C@H](CC(N)=O)NC(=O)CN)C(C)C)C(=O)N[C@@H](CC(C)C)C(N)=O	8
CC(C)C[C@H](NC(=O)[C@H](CCCN=C(N)N)NC(=O)[C@H](C)NC(=O)[C@H](CCCN=C(N)N)NC(=O)[C@H](CC(C)C)NC(=O)[C@H](CO)NC(=O)[C@H](CCC(=O)O)NC(=O)CNC(=O)[C@H](CCCCN)NC(=O)[C@H](CC(C)C)NC(=O)[C@H](CCCN=C(N)N)NC(=O)[C@H](CO)NC(=O)[C@@H](NC(=O)[C@H](CCCCN)NC(=O)[C@@H](NC(=O)[C@@H](NC(=O)CN)C(C)C)C(C)C)C(C)C)C(=O)O	5.35
CC[C@H](C)[C@H](NC(=O)[C@H](CC(C)C)NC(=O)[C@H](C)NC(=O)[C@@H]1CCCN1C(=O)[C@H](CC(C)C)NC(=O)CN)C(=O)N[C@@H](CO)C(=O)N[C@@H](Cc1c[nH]c2ccccc12)C(=O)N[C@H](C(=O)N[C@@H](CCCCN)C(=O)N[C@@H](CCCN=C(N)N)C(=O)N[C@@H](CCCCN)C(=O)N[C@@H](CCCN=C(N)N)C(=O)N[C@@H](CC(C)C)C(N)=O)[C@@H](C)CC	6.9
CC[C@H](C)[C@H](NC(=O)[C@H](CCCCN)NC(=O)[C@H](C)NC(=O)CNC(=O)[C@@H](NC(=O)[C@H](CCCCN)NC(=O)[C@@H](NC(=O)[C@H](CCCCN)NC(=O)[C@H](C)NC(=O)CNC(=O)[C@H](Cc1c[nH]c2ccccc12)NC(=O)[C@H](CCCCN)NC(=O)[C@@H](NC(=O)[C@H](CCCCN)NC(=O)[C@H](C)NC(=O)CNC(=O)[C@@H](NC(=O)[C@@H](N)CCCCN)[C@@H](C)CC)[C@@H](C)CC)[C@@H](C)CC)[C@@H](C)CC)C(N)=O	4.16

Please examine the following record next.
MIC value, target or system Escherichia coli, for `CC[C@H](C)[C@H](N)C(=O)N[C@@H](CC(C)C)C(=O)N1CCC[C@H]1C(=O)N[C@@H](Cc1c[nH]c2ccccc12)C(=O)N[C@@H](CCCCN)C(=O)N[C@@H](Cc1c[nH]c2ccccc12)C(=O)N1CCC[C@H]1C(=O)N[C@@H](Cc1c[nH]c2ccccc12)C(=O)N[C@@H](Cc1c[nH]c2ccccc12)C(=O)N1CCC[C@H]1C(=O)N[C@@H](C)C(=O)N[C@@H](CCCN=C(N)N)C(=O)N[C@@H](CCCN=C(N)N)C(N)=O` : 2.79

====

# Tested on: Staphylococcus epidermidis ATCC 12228
# protocol-notes: ≥ marks a high value that may be exact or a test limit, other limits are often not marked, values filed in µg/mL are converted to µM
readout: MIC
Field note: include the unit after the figure.

molecular-string	assayed-target	MIC
CC[C@H](C)[C@H](NC(=O)[C@H](C)NC(=O)[C@H](CCCCN)NC(=O)[C@@H]1CCCN1C(=O)[C@@H](NC(=O)[C@H](CC(C)C)NC(=O)[C@H](CCCCN)NC(=O)[C@H](Cc1ccccc1)NC(=O)[C@H](CC(C)C)NC(=O)[C@@H](N)Cc1ccccc1)[C@@H](C)CC)C(=O)N[C@@H](CCCCN)C(=O)N[C@@H](CCCCN)C(=O)N[C@@H](CC(C)C)C(=O)N[C@H](C(=O)N[C@@H](CO)C(=O)N[C@@H](CCCCN)C(=O)N[C@@H](Cc1ccccc1)C(=O)N[C@@H](CCCCN)C(=O)O)[C@@H](C)CC	Staphylococcus epidermidis ATCC 12228	5 µM

Please examine the following record next.
Value of MIC reported for the molecule `CC(C)[C@H](NC(=O)[C@H](CS)NC(=O)[C@@H](NC(=O)[C@H](CCCN=C(N)N)NC(=O)[C@H](CCCCN)NC(=O)CNC(=O)[C@H](CC(N)=O)NC(=O)[C@H](CS)NC(=O)[C@H](Cc1ccc(O)cc1)NC(=O)CNC(=O)CNC(=O)[C@H](CO)NC(=O)[C@@H](N)CCCN=C(N)N)C(C)C)C(=O)N[C@@H](CS)C(=O)N[C@@H](CCCN=C(N)N)C(=O)O` is 7.54 µM

FYI, the data here is from DBAASP.
